- Experiment Notes: Protein binding in rat plasma at 2500 ng/ml by HPLC analysis
- Assay type: ADME, cell-free
- Recorded Conditions: read-out: PPB (converted)
Quantity Measured: fraction unbound at 2500 ng/ml
Keep the answer to the number alone.

Can you look up the measured fraction unbound at 2500 ng/ml of Fc1ccc(NC(=S)N2CCN(c3ccnc4cc(Cl)ccc34)CC2)cc1 for me?
0.052

----------
Form: system (DNA gyrase subunit B (Mycobacterium smegmatis (strain ATCC 700084 / mc(2)155))), quantity (IC50), values below.

Before answering, review these 3 worked examples.
Compound: O=C(CN1CCN(c2ccnc3cc(Cl)ccc23)CC1)Nc1ccccn1
IC50: 9.1 µM

Compound: CCNC(=S)N1CCN(c2ccnc3cc(Cl)ccc23)CC1
IC50: 40.6 µM

Compound: CC(=O)c1ccc(NC(=S)N2CCN(c3ccnc4cc(Cl)ccc34)CC2)cc1
IC50: 27 µM

Now for another entry.
Can you look up the measured IC50 of Clc1ccc2c(N3CCN(Cc4c[nH]c5ccccc45)CC3)ccnc2c1 for me?
8.3 µM

----------
- System Under Test: DNA gyrase subunit B (Mycobacterium smegmatis (strain ATCC 700084 / mc(2)155), UniProt A0QNE0)
- Sequence (A0QNE0 whole entry): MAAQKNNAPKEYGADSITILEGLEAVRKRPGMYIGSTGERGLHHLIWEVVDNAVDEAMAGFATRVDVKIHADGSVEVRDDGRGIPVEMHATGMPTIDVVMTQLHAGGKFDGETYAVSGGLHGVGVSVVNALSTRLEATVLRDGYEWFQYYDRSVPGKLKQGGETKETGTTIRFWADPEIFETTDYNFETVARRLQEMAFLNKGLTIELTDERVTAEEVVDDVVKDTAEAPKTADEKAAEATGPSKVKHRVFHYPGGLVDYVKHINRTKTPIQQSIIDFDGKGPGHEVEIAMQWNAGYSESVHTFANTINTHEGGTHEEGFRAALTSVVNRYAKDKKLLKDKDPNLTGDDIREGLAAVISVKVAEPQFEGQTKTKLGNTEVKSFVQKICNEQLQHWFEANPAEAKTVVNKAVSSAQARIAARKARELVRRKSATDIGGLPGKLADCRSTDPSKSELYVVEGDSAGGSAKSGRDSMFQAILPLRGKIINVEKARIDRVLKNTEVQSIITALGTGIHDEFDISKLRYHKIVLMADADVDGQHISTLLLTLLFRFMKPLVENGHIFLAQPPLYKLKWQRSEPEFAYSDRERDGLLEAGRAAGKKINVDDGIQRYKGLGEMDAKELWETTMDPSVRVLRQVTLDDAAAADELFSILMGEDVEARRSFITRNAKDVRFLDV
Quantity Measured: pIC50
API: returns pIC50 as number; meaning -log10 of concentration in mol/L.

Compound: O=C(CN1CCN(c2ccnc3cc(Cl)ccc23)CC1)Nc1nc2ccc([N+](=O)[O-])cc2s1
pIC50: 4.79
//
Compound: CC(=O)c1ccc(NC(=O)CN2CCN(c3ccnc4cc(Cl)ccc34)CC2)cc1
pIC50: 5.12

Can you look up the measured pIC50 of O=C(CN1CCN(c2ccnc3cc(Cl)ccc23)CC1)Nc1ccccc1 for me?
4.48

Then CCNC(=O)N1CCN(c2ccnc3cc(Cl)ccc23)CC1 ?
4.34

Then O=C(CN1CCN(c2ccnc3cc(Cl)ccc23)CC1)Nc1ncc([N+](=O)[O-])s1 ?
4.84

----------
- Experiment Notes: AUC (0 to infinity) in Wistar rat at 1 mg/kg, iv administered as single dose
- Assay type: ADME, organism-based
- Parameters: dose 1 mg/kg, route intravenous, time infinity
- Recorded Conditions: in vivo
Quantity Measured: AUC(0-inf)
In your response, the unit should come after the numeric value.

Can you look up the measured AUC(0-inf) of Fc1ccc(NC(=S)N2CCN(c3ccnc4cc(Cl)ccc34)CC2)cc1 for me?
1350 ng·h/mL

----------
- Experiment Notes: Growth inhibition of mouse RAW264.7 cells at 100 uM after 48 hrs by MTT assay
- Format: cell-based
- Recorded Conditions: read-out: GI
Some compounds, each annotated with its measured inhibition at 48 h, 100 µM.
In your response, the unit should come after the numeric value.

Before answering, review these 5 worked examples.
Compound: COc1ccc2c(N3CCN(CC(=O)NCc4ccccn4)CC3)ccnc2c1
inhibition at 48 h, 100 µM: 33.5%
//
Compound: CCNC(=O)N1CCN(c2ccnc3cc(Cl)ccc23)CC1
inhibition at 48 h, 100 µM: 27%
//
Compound: Clc1ccc2c(N3CCN(Cc4nc5ccccc5[nH]4)CC3)ccnc2c1
inhibition at 48 h, 100 µM: 34.8%
//
Compound: COc1ccc(NC(=S)N2CCN(c3ccnc4cc(Cl)ccc34)CC2)cc1
inhibition at 48 h, 100 µM: 23.1%
//
Compound: CC(=O)c1ccc(NC(=O)CN2CCN(c3ccnc4cc(Cl)ccc34)CC2)cc1
inhibition at 48 h, 100 µM: 29.5%

Can you look up the measured inhibition at 48 h, 100 µM of Clc1ccc2c(N3CCN(Cc4c[nH]c5ccccc45)CC3)ccnc2c1 for me?
22.2%

----------
- Experiment Notes: Tmax in Wistar rat at 20 mg/kg, po administered as single dose
- Assay type: ADME, organism-based
- Recorded Conditions: in vivo
Quantity Measured: Tmax (h)
Field: numeric (h). Do not append units.

Can you look up the measured Tmax of Fc1ccc(NC(=S)N2CCN(c3ccnc4cc(Cl)ccc34)CC2)cc1 for me?
2.2

----------
- Experiment Notes: Growth inhibition of mouse RAW264.7 cells at 100 uM after 48 hrs by MTT assay
- Format: cell-based
- Recorded Conditions: read-out: GI
Use Condition met when the recorded inhibition at 48 h, 100 µM is no lower than 30%; use Condition not met when it is lower.

Reference set, count: 3
Compound: O=C(CN1CCN(c2ccnc3cc(C(F)(F)F)ccc23)CC1)NCc1ccccn1
Label Class: Condition met
--
Compound: S=C(NCc1ccccc1)N1CCN(c2ccnc3cc(Cl)ccc23)CC1
Label Class: Condition not met
--
Compound: S=C(Nc1ccc(Cl)cc1)N1CCN(c2ccnc3cc(Cl)ccc23)CC1
Label Class: Condition met

API: above_or_equal(metric=inhibition at 48 h, 100 µM, cutoff=30%) for item O=C(CN1CCN(c2ccnc3cc(Cl)ccc23)CC1)NCc1ccccc1
Condition not met

Then O=C(CN1CCN(c2ccnc3cc(Cl)ccc23)CC1)NCc1ccco1 ?
Condition not met

Then CC(=O)c1ccc(NC(=O)N2CCN(c3ccnc4cc(Cl)ccc34)CC2)cc1 ?
Condition not met

Then O=C(CN1CCN(c2ccnc3cc(Cl)ccc23)CC1)Nc1ccccn1 ?
Condition not met

Then O=C(CN1CCN(c2ccnc3ccccc23)CC1)NCc1ccccn1 ?
Condition not met

----------
- Test system: Mycobacterium tuberculosis
- Experiment Notes: microbe, parasite or virus in culture
- Recorded Conditions: H37Rv, 168 h
- Description: Antimycobacterial activity against Mycobacterium tuberculosis H37Rv after 7 days by microplate alamar blue assay
Under this convention, Yes denotes MIC strictly below 20 µM and No denotes MIC at or above 20 µM.

Reference set, count: 5
Compound: Clc1ccc2c(N3CCN(Cc4c[nH]c5ccccc45)CC3)ccnc2c1
Label Class: Yes

Compound: CC(=O)c1ccc(NC(=S)N2CCN(c3ccnc4cc(Cl)ccc34)CC2)cc1
Label Class: No

Compound: CO[C@H]1/C=C/O[C@@]2(C)Oc3c(C)c(O)c4c(O)c(c(/C=N/N5CCN(C)CC5)c(O)c4c3C2=O)NC(=O)/C(C)=C\C=C\[C@H](C)[C@H](O)[C@@H](C)[C@@H](O)[C@@H](C)[C@H](OC(C)=O)[C@@H]1C
Label Class: Yes

Compound: CC(=O)c1ccc(NC(=O)CN2CCN(c3ccnc4cc(Cl)ccc34)CC2)cc1
Label Class: Yes

Compound: COc1ccc(NC(=O)N2CCN(c3ccnc4cc(Cl)ccc34)CC2)cc1
Label Class: No

Criterion: MIC strictly below 20 µM. Is it met by O=C(Nc1ccc(Cl)cc1)N1CCN(c2ccnc3cc(Cl)ccc23)CC1 ?
No

Then O=[N+]([O-])c1ccc(NC(=S)N2CCN(c3ccnc4cc(Cl)ccc34)CC2)cc1 ?
Yes

Then CC(=O)c1ccc(NC(=O)N2CCN(c3ccnc4cc(Cl)ccc34)CC2)cc1 ?
No

----------
- Experiment Notes: AUC (0 to t) in Wistar rat at 1 mg/kg, iv administered as single dose
- Type: ADME, organism-based
- Recorded Conditions: in vivo
Quantity Measured: AUC(0-t) (ng·h/mL)
Field: numeric (ng·h/mL). Do not append units.

Can you look up the measured AUC(0-t) of Fc1ccc(NC(=S)N2CCN(c3ccnc4cc(Cl)ccc34)CC2)cc1 for me?
1240

----------
- Experiment Notes: Protein binding in human plasma at 2500 ng/ml by HPLC analysis
- Assay type: ADME, cell-free
- Recorded Conditions: read-out: PPB (converted)
Quantity Measured: fraction unbound at 2500 ng/ml

Can you look up the measured fraction unbound at 2500 ng/ml of Fc1ccc(NC(=S)N2CCN(c3ccnc4cc(Cl)ccc34)CC2)cc1 for me?
0.064

----------
- System Under Test: DNA gyrase subunit B (Mycobacterium smegmatis (strain ATCC 700084 / mc(2)155), UniProt A0QNE0)
Some compounds, each annotated with its measured IC50.
Field: numeric (µM). Do not append units.

Before answering, review these 5 worked examples.
Compound: O=C(c1ccccn1)N1CCN(c2ccnc3cc(Cl)ccc23)CC1
Observed Measurement: 11
//
Compound: O=C(Nc1ccccc1)N1CCN(c2ccnc3cc(Cl)ccc23)CC1
Observed Measurement: 7.6
//
Compound: S=C(Nc1ccc(Cl)cc1)N1CCN(c2ccnc3cc(Cl)ccc23)CC1
Observed Measurement: 10.7
//
Compound: O=C(CN1CCN(c2ccnc3cc(Cl)ccc23)CC1)NCc1ccccc1
Observed Measurement: 23.8
//
Compound: Fc1ccc(NC(=S)N2CCN(c3ccnc4cc(Cl)ccc34)CC2)cc1
Observed Measurement: 2.5

Can you look up the measured IC50 of O=C(c1cc2cc(Cl)ccc2[nH]1)N1CCN(c2ccnc3cc(Cl)ccc23)CC1 for me?
10.3

Then O=[N+]([O-])c1ccc(N2CCN(c3ccnc4cc(Cl)ccc34)CC2)c2nonc12 ?
10.3

Then O=C(CN1CCN(c2ccnc3cc(Cl)ccc23)CC1)NCc1ccco1 ?
16.2

----------
- Experiment Notes: Total clearance in Wistar rat at 1 mg/kg, iv administered as single dose
- Assay type: ADME, organism-based
- Recorded Conditions: in vivo
Quantity Measured: clearance (mL/min/kg)
Field: numeric (mL/min/kg). Do not append units.

Can you look up the measured clearance of Fc1ccc(NC(=S)N2CCN(c3ccnc4cc(Cl)ccc34)CC2)cc1 for me?
13.3

Provenance of the data: ChEMBL document CHEMBL3865798
